Recorded z-score by entry
assay.comment: MM1S myeloma cell viability, profiling panel, resazurin fluorescence, basal, 24 h, PK04 Diversity Set (AID 1174);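 further: MM1S multiple myeloma cell line; test concentration not given here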
applied.conditions: higher = more signal, called active from +8 up or from −8 down
Lab note: jot down the number only; don't add units.

Consider the worked cases shown below.
{"compound": "NCCCCCCNC(=O)[C@@H]1C[C@@H]2C(=O)N3CCC[C@H]3C(=O)N2[C@@H]1c1ccc(O)cc1", "endpoint.name": "z-score", "data.value": -0.233}
{"compound": "CC(C)OC(=O)CC(=O)CC(O)c1cccc(C#N)c1 (centres undefined)", "endpoint.name": "z-score", "data.value": 0.343}
{"compound": "COC(=O)[C@@]1(Cc2ccccc2)[C@H]2c3cc(C(=O)N4CCCC4)n(Cc4cc(F)cc5c4OCOC5)c3C[C@H]2CN1C(=O)c1ccccc1", "endpoint.name": "z-score", "data.value": -0.523}

// next entry
Exercise: Which z-score is reported for this compound? `CCOC(=O)C[C@H]1[C@H](OC(=O)Cc2ccc3c(c2)OCO3)[C@@H](NC(=O)Cc2ccc(OC)cc2)c2cc(OCCCO)ccc2N1C(=O)c1ccccc1`
Key: -0.727

----------
tgt: Calmodulin-1 (Homo sapiens) (UniProt P0DP23)
assay.comment: CALM1 binders on microarrays, EGTA buffer, profiling panel, biochemical, small-molecule microarray, Cy5-labelled CALM1 (AID 1111);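 further: labelled calmodulin applied in Tris saline Tween buffer holding calcium plus EGTA and DTT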
applied.conditions: Cy5-CALM1 binding fluorescence, higher = more signal
Decide using composite z-score: a value greater than or equal to 0.5 is 1, a smaller one is 0.

Illustrative cases are given below, each with its answer.
{"compound": "CN(C)CCCNC(=O)[C@@H]1c2ccccc2C(=O)N(Cc2ccc(OC(F)(F)F)cc2)[C@H]1c1ccc(CO)cc1", "class": 0}
{"compound": "CCOc1cc(C(O)C2C=CC3C(=O)N(C4CCCCC4)C(=O)C3N2Nc2ccc(OC)cc2)ccc1O (centres undefined)", "class": 1}
{"compound": "CC(C)(C)N1CC=CC23O[C@@H]4C=CCOC(=O)[C@@H]4[C@H]2C(=O)N(CCCO)[C@@H]3C1=O (some centres undefined)", "class": 0}
{"compound": "COc1cc2c(cc1OC)CN(C(=O)[C@@H]1[C@H]3C(=O)O[C@H](c4ccccc4)[C@H](c4ccccc4)N3[C@H](c3ccccc3OCCO)[C@@]13C(=O)Nc1ccc(C#CC4(O)CCCCCC4)cc13)CC2", "class": 1}
{"compound": "CC(C)(C)OC(=O)CC[C@]1(C(=O)O)N=C(c2ccc(OCCCO)cc2)O[C@H]1c1ccccc1CN=[N+]=[N-]", "class": 0}
{"compound": "O=C1OCC=C[C@H]2OC34C=CCN(Cn5nnc6ccccc65)C(=O)[C@H]3N(CCCCCCO)C(=O)[C@@H]4[C@@H]12 (some centres undefined)", "class": 0}
{"compound": "CN(C)CCCCNC(=O)[C@H]1C[C@H]2C(=O)N[C@@H](CCCCN(C)C)C(=O)N2[C@H]1c1cccc(OCCO)c1", "class": 0}
{"compound": "C=CCN1C(=O)[C@@]2(O[C@@H](CCn3cc([C@H](O)c4ccccc4)nn3)[C@H]([Si](C)(C)c3ccc(OC)cc3)[C@H]2C)c2ccccc21", "class": 0}

Exercise: composite z-score >= 0.5 for `C=C(COC)/C(=C/C[C@@H](OC(=O)c1ccncc1)c1ccc(CO)o1)c1cnc2ccccc2c1` ?
Key: 0

Exercise: Cool, now `CO[C@H]1O[C@H](CO)[C@@H](OC(=O)Nc2ccc(Oc3ccccc3)cc2)[C@H](OC(=O)Nc2ccccc2-c2ccccc2)[C@@H]1OC(=O)Nc1ccccc1-c1ccccc1`
Key: 1

Exercise: Entry CC=CC(O)C1C=CC2C(=O)N(c3ccccc3)C(=O)C2N1Nc1ccccc1 (centres undefined) please
Key: 1

Exercise: # repeat for `C=C(COC)/C(=C/C[C@@H](OC(=O)c1ccncc1)c1cccc(OCCO)c1)c1cnc2ccccc2c1`
Key: 1

Exercise: Repeat for the following compound: `NC(=O)NCC#Cc1ccc2c(c1)[C@]1(C(=O)N2)[C@H](C(=O)Nc2nc3ccccc3s2)[C@H]2C(=O)O[C@H](c3ccccc3)[C@H](c3ccccc3)N2[C@@H]1c1ccc(O)cc1`
Key: 1

Exercise: One more compound: `C#CCNC(=O)[C@H](Cc1ccccc1)NC(=O)[C@@H](N=[N+]=[N-])C(C)C`
Key: 0

----------
Recorded composite z-score by entry
Test system: Plasmodium falciparum Sir2 (PF13_0152, Sir2A)
assay.comment: pfSir2 binders on small-molecule microarrays, primary screen, biochemical, small-molecule microarray, 635 nm fluorescence (AID 1098);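 further: score merges spot fluorescence intensity with its signal-to-noise ratio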
applied.conditions: small-molecule microarray binding, fluorescence 635 nm; higher = more signal
Would you mind answering with just the numeric figure?

Worked cases, answers included:
{"molecule": "COc1ccc(C(O)C2C=CC3C(=O)N(C)C(=O)C3N2N2CCCCC2)cc1 (stereo not drawn)", "endpoint.name": "composite z-score", "data.value": 1.23}
{"molecule": "CC(=O)n1cc(C(O)C2C=CC3C(=O)N(c4ccccc4)C(=O)C3N2Nc2ccccc2)c2ccccc21 (stereo not drawn)", "endpoint.name": "composite z-score", "data.value": 0.454}

Exercise: Could you share what composite z-score was measured for C=CCC(OC(C)=O)[C@@H]1[C@@H](N(Cc2cc3ccccc3o2)C(=O)Cc2ccc(F)cc2)c2cc(OCCCO)ccc2N1C(=O)c1ccc2ccccc2n1 (stereo partly drawn) , tested on Plasmodium falciparum Sir2 (PF13_0152, Sir2A)?
Key: -0.278

Exercise: Here is the next molecule: COc1ccc(C(O)C2C=CC3C(=O)N(Cc4ccccc4)C(=O)C3N2n2cnnc2)c2ccccc12 (stereo not drawn)
Key: 1.83

Exercise: Next entry: `CN(C)CCCCNC(=O)[C@H]1C[C@H]2C(=O)N[C@@H](CCCCN(C)C)C(=O)N2[C@H]1c1cccc(OCCO)c1`
Key: 1.12

Exercise: For `Cc1ccc(S[C@]2(C(=O)NCC(F)(F)F)CC(=O)N(Cc3ccccc3)[C@@H]2c2ccc(CO)cc2)cc1` then?
Key: 1.54

Exercise: Repeat with NC(=O)N1C(=O)C2C(C1=O)C1C=C(CCCO)C2C(c2cccs2)N1Cc1cc2c(cc1Br)OCO2 (stereo not drawn)
Key: 0.884

Exercise: Try this molecule next: `CC(C)N1C(=O)[C@@]2(c3ccc([N+](=O)[O-])cc3)CC(=O)N(C3CCCCC3)[C@@H]2c2ccc(CO)cc21`
Key: 0.29

----------
tgt: Fibroblast growth factor 2 (Homo sapiens) (UniProt P09038)
Sequence (P09038 whole entry, looked up): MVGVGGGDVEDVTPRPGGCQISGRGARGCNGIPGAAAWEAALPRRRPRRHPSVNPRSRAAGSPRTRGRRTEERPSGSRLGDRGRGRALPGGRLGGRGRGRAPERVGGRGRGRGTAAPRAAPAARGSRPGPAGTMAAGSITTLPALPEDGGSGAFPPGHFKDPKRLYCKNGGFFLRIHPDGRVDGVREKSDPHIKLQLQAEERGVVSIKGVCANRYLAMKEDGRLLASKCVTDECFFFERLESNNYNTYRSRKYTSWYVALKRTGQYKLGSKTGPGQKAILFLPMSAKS
assay.comment: FGF2 binders on small-molecule microarrays, primary screen, biochemical, small-molecule microarray, 635/667 nm fluorescence (AID 1133)
applied.conditions: small-molecule microarray binding, FGF2, fluorescence 635/667; higher = more signal
Label rule, in plain words: composite z-score of -0.1 and up is met, under -0.1 is not met.

These solved cases illustrate the format of a correct answer.
{"molecule": "CCCNC(=O)[C@@]1(c2ccc([N+](=O)[O-])cc2)CC(=O)N(C2CCCCC2)[C@@H]1c1ccc(CO)cc1I", "class": "met"}
{"molecule": "COC(=O)[C@@]1(Cc2ccc(F)cc2)[C@H]2c3cc(C(=O)N4CCCC4)n(CCF)c3C[C@H]2CN1C(=O)c1ccccc1", "class": "not met"}
{"molecule": "COc1ccc(NN2C(C(O)c3ccco3)C=CC3C(=O)N(C4CCCCC4)C(=O)C32)cc1 (stereo not drawn)", "class": "met"}
{"molecule": "CC(C)(C)OC(=O)CC[C@]1(C(=O)O)N=C(c2ccc(OCCCO)cc2)O[C@H]1c1ccccc1CN=[N+]=[N-]", "class": "met"}
{"molecule": "CC(C)OC(=O)CC(=O)CC(O)c1cccc(C#N)c1 (stereo not drawn)", "class": "not met"}

Exercise: Tell me whether composite z-score is at least -0.1 here: `COCCOC(=O)N1C(=O)[C@@]2(c3cc(C#CC4(O)CCCCCC4)ccc31)[C@H](C(N)=O)[C@H]1C(=O)O[C@H](c3ccccc3)[C@H](c3ccccc3)N1[C@@H]2c1ccc(O)cc1`
Key: met

Exercise: # iterate: Cc1ccc(C(C)CC(O)C2C=CC3C(=O)N(c4ccccc4)C(=O)C3N2Nc2ccc(C(C)C)cc2)o1 (stereo not drawn)
Key: not met

Exercise: // next record `Cc1ccc(S[C@]2(C(=O)NCCN3CCOCC3)CC(=O)N(Cc3ccccc3C(F)(F)F)[C@@H]2c2ccc(CO)cc2I)cc1`
Key: not met

----------
tgt: NADPH oxidase 2 (Homo sapiens) (UniProt P04839)
Sequence (P04839 whole entry, looked up): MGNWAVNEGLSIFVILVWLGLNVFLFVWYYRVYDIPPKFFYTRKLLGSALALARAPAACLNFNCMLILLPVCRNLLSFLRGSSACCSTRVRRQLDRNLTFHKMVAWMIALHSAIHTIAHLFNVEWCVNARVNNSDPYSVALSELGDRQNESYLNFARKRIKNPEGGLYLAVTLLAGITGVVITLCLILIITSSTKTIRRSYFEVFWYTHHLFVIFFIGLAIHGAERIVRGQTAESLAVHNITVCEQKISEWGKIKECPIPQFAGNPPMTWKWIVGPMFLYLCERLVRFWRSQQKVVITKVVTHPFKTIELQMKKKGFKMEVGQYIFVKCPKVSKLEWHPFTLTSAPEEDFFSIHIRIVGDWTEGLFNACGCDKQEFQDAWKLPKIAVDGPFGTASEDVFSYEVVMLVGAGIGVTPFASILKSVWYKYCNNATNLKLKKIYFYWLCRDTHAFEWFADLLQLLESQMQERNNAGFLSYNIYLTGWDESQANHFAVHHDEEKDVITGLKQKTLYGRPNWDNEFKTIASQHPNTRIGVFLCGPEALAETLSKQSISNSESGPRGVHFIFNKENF
assay.comment: NOX2-dependent H2O2 signal modulators, primary screen, NOX inhibitor project, cell-based, HEK293-NOX2, PMA-stimulated, Amplex Red fluorescence (AID 1159); further: test concentration not given here
applied.conditions: 45 min, higher = more signal, called active from +8 up or from −8 down
Attribute: z-score
Lab note: jot down the number only; don't add units.

Solved cases (3 shown):
{"compound": "C=C(CCCC)C(=O)CC[C@@H](OC(=O)c1cccnc1)c1ccccc1OCCO", "data.value": -1.73}
{"compound": "CC(C)C(CO)N1C(=O)[C@]2(C)C3C(=O)OCCC/C=C\\[C@H]3OC23C=CCN(c2ccc(Cl)cc2)C(=O)[C@@H]13 (some centres undefined)", "data.value": 1.47}
{"compound": "O=C1NC(=O)C2C1C=CC(C(O)c1c(F)cccc1Cl)N2Nc1ccccn1 (centres undefined)", "data.value": -1.84}

Exercise: Suppose we examine the compound `Cc1c(NC(=O)/C(C#N)=C/C=C/c2ccccc2[N+](=O)[O-])c(=O)n(-c2ccccc2)n1C` ; what z-score value has been reported?
Key: -0.235

The reported numbers originate from PubChem BioAssay.
